# measurementProtocol: Plasma pharmacokinetics after single oral administration of CAP
# testConditions: human, plasma, po, 2 g
quantity: half-life (min)
Give just the number in min; leave the unit off.

Query string: For the compound shown here, COc1cc(CCC(=O)O)ccc1O [DHFA, dihydroferulic acid] , give the reported half-life.
Result string: 270

More entries:
Query string: For the compound shown here, O=C(O)CCc1ccc(O)c(O)c1 [DHCA, dihydrocaffeic acid] , give the reported half-life.
Result string: 288

Query string: For the compound shown here, C[C@H]1[C@H](C)CC[C@]2(C(=O)O)CC[C@]3(C)C(=CC[C@@H]4[C@@]5(C)C[C@@H](O)[C@H](O)[C@@](C)(CO)[C@@H]5[C@H](O)C[C@]43C)[C@H]12 [MA, madecassic acid] , give the reported half-life.
Result string: 102

Query string: For the compound shown here, COc1ccc(/C=C/C(=O)O)cc1O [IFA, isoferulic acid] , give the reported half-life.
Result string: 528

Query string: For the compound shown here, C[C@H]1[C@H](C)CC[C@]2(C(=O)O)CC[C@]3(C)C(=CC[C@@H]4[C@@]5(C)C[C@@H](O)[C@H](O)[C@@](C)(CO)[C@@H]5CC[C@]43C)[C@H]12 [AA, asiatic acid] , give the reported half-life.
Result string: 228

Query string: For the compound shown here, O=C(O)CCc1cccc(O)c1 [HPP, 3-(3-hydroxyphenyl)propionic acid] , give the reported half-life.
Result string: 138

Query string: For the compound shown here, O=C(O)/C=C/c1ccc(O)c(O)c1 [CA, caffeic acid] , give the reported half-life.
Result string: 156

====

# measurementProtocol: Plasma pharmacokinetics after single oral administration of CAP
# testConditions: human, plasma, oral, 2 g
quantity: Tmax (h)
Give just the number in h; leave the unit off.

Query string: For the compound shown here, `C[C@H]1[C@H](C)CC[C@]2(C(=O)O)CC[C@]3(C)C(=CC[C@@H]4[C@@]5(C)C[C@@H](O)[C@H](O)[C@@](C)(CO)[C@@H]5CC[C@]43C)[C@H]12` , give the reported Tmax.
Result string: 3

More entries:
Query string: For the compound shown here, `C[C@H]1[C@H](C)CC[C@]2(C(=O)O)CC[C@]3(C)C(=CC[C@@H]4[C@@]5(C)C[C@@H](O)[C@H](O)[C@@](C)(CO)[C@@H]5[C@H](O)C[C@]43C)[C@H]12` , give the reported Tmax.
Result string: 0.75

====

# measurementProtocol: Plasma pharmacokinetics after single oral administration of CAP
# testConditions: human, plasma, oral, 4 g
Listed here are molecules together with their documented Cmax.
Give just the number in ng/mL; leave the unit off.

Query string: For the molecule shown here, `C[C@H]1[C@H](C)CC[C@]2(C(=O)O)CC[C@]3(C)C(=CC[C@@H]4[C@@]5(C)C[C@@H](O)[C@H](O)[C@@](C)(CO)[C@@H]5[C@H](O)C[C@]43C)[C@H]12` , give the reported Cmax.
Result string: 47

More entries:
Query string: For the molecule shown here, `C[C@H]1[C@H](C)CC[C@]2(C(=O)O)CC[C@]3(C)C(=CC[C@@H]4[C@@]5(C)C[C@@H](O)[C@H](O)[C@@](C)(CO)[C@@H]5CC[C@]43C)[C@H]12` , give the reported Cmax.
Result string: 206

====

# measurementProtocol: clinical
# testConditions: human, in vivo, po
quantity: Cmax (ng/mL)
Give just the number in ng/mL; leave the unit off.

Query string: For the compound shown here, `O=C(O)/C=C/c1ccc(O)c(O)c1` , give the reported Cmax.
Result string: 0.3

====

# measurementProtocol: Analyte levels in screening and baseline plasma and urine (low phytochemical diet check)
# testConditions: baseline on study visits after 48 h low phytochemical diet, before CAP, mean ± SEM, n = 4
Listed here are compounds together with their documented Baseline Total, urine concentration.
Give just the number in ng/mL; leave the unit off.

Query string: For the compound shown here, COc1cc(CCC(=O)O)ccc1O [DHFA, dihydroferulic acid] , give the reported Baseline Total, urine concentration.
Result string: 273

Query string: For the compound shown here, COc1ccc(/C=C/C(=O)O)cc1O [IFA, isoferulic acid] , give the reported Baseline Total, urine concentration.
Result string: 5

Query string: For the compound shown here, O=C(O)CCc1ccc(O)c(O)c1 [DHCA, dihydrocaffeic acid] , give the reported Baseline Total, urine concentration.
Result string: 9

Query string: For the compound shown here, O=C(O)CCc1cccc(O)c1 [HPP, 3-(3-hydroxyphenyl)propionic acid] , give the reported Baseline Total, urine concentration.
Result string: 2

====

Listed here are compounds together with their documented Screening Unconjugated, urine concentration.
# measurementProtocol: Analyte levels in screening and baseline plasma and urine (low phytochemical diet check)
# testConditions: screening visit, uncontrolled diet, sham enzyme, mean ± SEM, n = 4
Give just the number in ng/mL; leave the unit off.

Query string: For the compound shown here, COc1cc(CCC(=O)O)ccc1O [DHFA, dihydroferulic acid] , give the reported Screening Unconjugated, urine concentration.
Result string: 179

Query string: For the compound shown here, COc1ccc(/C=C/C(=O)O)cc1O [IFA, isoferulic acid] , give the reported Screening Unconjugated, urine concentration.
Result string: 4

Query string: For the compound shown here, O=C(O)/C=C/c1ccc(O)c(O)c1 [CA, caffeic acid] , give the reported Screening Unconjugated, urine concentration.
Result string: 184

Query string: For the compound shown here, O=C(O)CCc1cccc(O)c1 [HPP, 3-(3-hydroxyphenyl)propionic acid] , give the reported Screening Unconjugated, urine concentration.
Result string: 23

Now consider a different compound.
Query string: For the compound shown here, O=C(O)CCc1ccc(O)c(O)c1 [DHCA, dihydrocaffeic acid] , give the reported Screening Unconjugated, urine concentration.
Result string: 46

====

# measurementProtocol: Plasma pharmacokinetics after single oral administration of CAP
# testConditions: human, plasma, po, 4 g
quantity: Tmax
Phrase the answer as number then unit, nothing more needed.

Query string: For the compound shown here, `COc1ccc(/C=C/C(=O)O)cc1O` , give the reported Tmax.
Result string: 1 h

Query string: For the compound shown here, O=C(O)CCc1cccc(O)c1 [HPP, 3-(3-hydroxyphenyl)propionic acid] , give the reported Tmax.
Result string: 5.5 h

Now consider a different compound.
Query string: For the compound shown here, `C[C@H]1[C@H](C)CC[C@]2(C(=O)O)CC[C@]3(C)C(=CC[C@@H]4[C@@]5(C)C[C@@H](O)[C@H](O)[C@@](C)(CO)[C@@H]5[C@H](O)C[C@]43C)[C@H]12` , give the reported Tmax.
Result string: 2 h

====

Listed here are compounds together with their documented Tmax.
# measurementProtocol: Plasma pharmacokinetics after single oral administration of CAP
# testConditions: human, plasma, oral
Phrase the answer as number then unit, nothing more needed.

Examples with their reported Tmax follow.
Query string: For the compound shown here, COc1cc(CCC(=O)O)ccc1O [DHFA, dihydroferulic acid] , give the reported Tmax.
Result string: 4 h

Query string: For the compound shown here, C[C@H]1[C@H](C)CC[C@]2(C(=O)O)CC[C@]3(C)C(=CC[C@@H]4[C@@]5(C)C[C@@H](O)[C@H](O)[C@@](C)(CO)[C@@H]5[C@H](O)C[C@]43C)[C@H]12 [MA, madecassic acid] , give the reported Tmax.
Result string: 2 h

More entries:
Query string: For the compound shown here, O=C(O)CCc1cccc(O)c1 [HPP, 3-(3-hydroxyphenyl)propionic acid] , give the reported Tmax.
Result string: 6 h

Query string: For the compound shown here, COc1ccc(/C=C/C(=O)O)cc1O [IFA, isoferulic acid] , give the reported Tmax.
Result string: 0.75 h

Query string: For the compound shown here, C[C@H]1[C@H](C)CC[C@]2(C(=O)O)CC[C@]3(C)C(=CC[C@@H]4[C@@]5(C)C[C@@H](O)[C@H](O)[C@@](C)(CO)[C@@H]5CC[C@]43C)[C@H]12 [AA, asiatic acid] , give the reported Tmax.
Result string: 2 h

Query string: For the compound shown here, O=C(O)/C=C/c1ccc(O)c(O)c1 [CA, caffeic acid] , give the reported Tmax.
Result string: 6 h

Query string: For the compound shown here, O=C(O)CCc1ccc(O)c(O)c1 [DHCA, dihydrocaffeic acid] , give the reported Tmax.
Result string: 4 h

====

Listed here are compounds together with their documented Tmax.
# measurementProtocol: Plasma pharmacokinetics after single oral administration of CAP
# testConditions: human, plasma, po, 4 g
Give just the number in h; leave the unit off.

Query string: For the compound shown here, COc1cc(CCC(=O)O)ccc1O [DHFA, dihydroferulic acid] , give the reported Tmax.
Result string: 3.5

Query string: For the compound shown here, `C[C@H]1[C@H](C)CC[C@]2(C(=O)O)CC[C@]3(C)C(=CC[C@@H]4[C@@]5(C)C[C@@H](O)[C@H](O)[C@@](C)(CO)[C@@H]5CC[C@]43C)[C@H]12` , give the reported Tmax.
Result string: 2

Query string: For the compound shown here, O=C(O)CCc1ccc(O)c(O)c1 [DHCA, dihydrocaffeic acid] , give the reported Tmax.
Result string: 3.5

Query string: For the compound shown here, `O=C(O)/C=C/c1ccc(O)c(O)c1` , give the reported Tmax.
Result string: 4
